- assay.comment: Plasma pharmacokinetics after a single oral dose
- Type: in vivo
- experimental.parameters: male, Wistar, rat, rats, single p.o. 18 mg/kg b.w., n = 5, plasma, read-out: MRTlast (mean residence time)
assay.readout: MRT last (h)
Record the value in h, omitting the unit from your answer.

Entry Cc1ccc(-c2c(Cl)ncn2-c2ccc(S(C)(=O)=O)cn2)cc1 has what MRT last?
8.09

* * *

- assay.comment: Plasma pharmacokinetics after a single oral dose
- Assay type: in vivo
- experimental.parameters: male, Wistar, rat, plasma, 18 mg/kg, rats, single p.o. 18 mg/kg b.w., n = 5, plasma
- Procedure: Five male rats were administered a single dose of vitacoxib (18 mg/kg) obtained by crushing and dissolving vitacoxib tablets in 0.5% CMC-Na (6 mg/ml). […] Vitacoxib in plasma samples was analyzed using an established and validated UPLC-MS/MS (Waters Acquity UPLC and Water Quattro Premier, Waters Co., USA) method using a procedure previously described by our group ([18]). The lower limit of quantification was 0.5 ng/ml and the calibration range of the method was 0.5–1,000 ng/ml. […]
assay.readout: Tmax

Entry Cc1ccc(-c2c(Cl)ncn2-c2ccc(S(C)(=O)=O)cn2)cc1 has what Tmax?
~5 h

* * *

- assay.comment: Plasma pharmacokinetics after a single oral dose
- Type: in vivo
- experimental.parameters: male, Wistar, rat, rats, single p.o. 18 mg/kg b.w., n = 5, plasma, noncompartmental, read-out: λz (elimination rate constant) (converted)
assay.readout: k el (s⁻¹)
Record the value in s⁻¹, omitting the unit from your answer.

Entry Cc1ccc(-c2c(Cl)ncn2-c2ccc(S(C)(=O)=O)cn2)cc1 has what k el?
4.44e-05

* * *

- assay.comment: Plasma pharmacokinetics after a single oral dose
- Assay type: in vivo
- experimental.parameters: male, Wistar, rat, rats, single p.o. 18 mg/kg b.w., n = 5, plasma, 0 to infinity, read-out: AUCINF_obs
assay.readout: AUC(0-inf) (ng·h/mL)
Record the value in ng·h/mL, omitting the unit from your answer.

Entry Cc1ccc(-c2c(Cl)ncn2-c2ccc(S(C)(=O)=O)cn2)cc1 has what AUC(0-inf)?
4930

* * *

- assay.comment: Plasma pharmacokinetics after a single oral dose
- Assay type: in vivo
- experimental.parameters: male, Wistar, rat, rats, single p.o. 18 mg/kg b.w., n = 5, plasma, read-out: Cmax (maximum plasma concentration)
- Experimental: Five male rats were administered a single dose of vitacoxib (18 mg/kg) obtained by crushing and dissolving vitacoxib tablets in 0.5% CMC-Na (6 mg/ml). […] Vitacoxib in plasma samples was analyzed using an established and validated UPLC-MS/MS (Waters Acquity UPLC and Water Quattro Premier, Waters Co., USA) method using a procedure previously described by our group ([18]). The lower limit of quantification was 0.5 ng/ml and the calibration range of the method was 0.5–1,000 ng/ml. […]
assay.readout: Cmax (ng/mL)
Record the value in ng/mL, omitting the unit from your answer.

Entry Cc1ccc(-c2c(Cl)ncn2-c2ccc(S(C)(=O)=O)cn2)cc1 has what Cmax?
450

* * *

- assay.comment: Plasma pharmacokinetics after a single oral dose
- Type: in vivo
- experimental.parameters: male, Wistar, rat, rats, single p.o. 18 mg/kg b.w., n = 5, plasma, 0 to last point
assay.readout: AUC(0-t) (ng·h/mL)
Record the value in ng·h/mL, omitting the unit from your answer.

Entry Cc1ccc(-c2c(Cl)ncn2-c2ccc(S(C)(=O)=O)cn2)cc1 has what AUC(0-t)?
4900

* * *

- assay.comment: Plasma pharmacokinetics after a single oral dose
- Assay type: in vivo
- experimental.parameters: male, Wistar, rat, rats, single p.o. 18 mg/kg b.w., n = 5, plasma, read-out: T1/2λz (elimination half-life) (converted)
assay.readout: half-life
Number plus unit, in that order.

Entry Cc1ccc(-c2c(Cl)ncn2-c2ccc(S(C)(=O)=O)cn2)cc1 [vitacoxib] has what half-life?
4.25 h
